Measured values drawn from PubChem BioAssay (Tox21) for this set.

# assay-info: qHTS assay to identify small molecule antagonists of the sonic hedgehog signaling (Shh) pathway (AID 1259369); further: nearly all actives have a fitted effect of over 45% in size
# condition-info: NIH/3T3 Gli1-Luc reporter, Shh antagonist, luminescence 24 h; series mostly up to 92.4 µM
Records with an inconclusive call do not appear. Activity calls are given as the source filed them. The call rests on the fitted dose curve.
Classes used: 1 = active, 0 = inactive

CCc1cc(C2=C(C(=O)O)N(c3ccccc3C(F)(F)F)S(=O)(=O)c3ccccc32)cc2c1OCO2 : 0
Nc1cccc(S(=O)(=O)c2cccc(N)c2)c1 : 0
COC(=O)c1ccc(I)cc1S(=O)(=O)NC(=O)Nc1nc(C)nc(OC)n1 : 0
CC(=O)OC[C@H]1O[C@@H](n2ncc(=O)[nH]c2=O)[C@H](OC(C)=O)[C@@H]1OC(C)=O : 0
CC(C)O.CC(C)O.CCOC(=O)/C=C(\C)O.CCOC(=O)/C=C(\C)O.[Ti] : 0
O=C1[C@H]2CCCC[C@H]2C(=O)N1CCCCN1CCN(c2nsc3ccccc23)CC1 : 1
COc1cc(C(=O)OCCCN2CCCN(CCCOC(=O)c3cc(OC)c(OC)c(OC)c3)CC2)cc(OC)c1OC : 1
CN(Cc1ccc(C(C)(C)C)cc1)Cc1cccc2ccccc12 : 0
NCCCN1CCOCC1 : 0
CCOC(=O)Cc1cccc2ccccc12 : 0
CNC(=O)CN(CCN(CCN(CC(=O)[O-])CC(=O)NC)CC(=O)[O-])CC(=O)[O-].O.[Gd+3] : 0
COCC(C)OC(C)=O (centres undefined) : 0
Cc1cc(C(=O)O)ccc1[N+](=O)[O-] : 0
CCCCC(=O)OCC(=O)[C@H]1[C@H](C)C[C@H]2[C@@H]3C[C@H](F)C4=CC(=O)C=C[C@]4(C)[C@@]3(F)[C@@H](O)C[C@@]21C : 0
CC(C)(O)c1ccc(CNC(=O)c2cccnc2Oc2ccc(F)cc2)cc1 : 1
OCc1cc(C(O)CNCCCCCCOCCCCc2ccccc2)ccc1O (centres undefined) : 1
Cc1oc(-c2ccccc2)nc1CCOc1cccc2c1ccn2CCC(=O)O : 0
CC(=O)c1ccc2c(c1)N(CCCN1CCC(CCO)CC1)c1ccccc1S2 : 1
CCc1c(C(=O)NN2CCCCC2)nn(-c2ccc(Cl)cc2Cl)c1-c1ccc(Br)cc1 : 0
c1cc(CCCc2ccncc2)ccn1 : 0
CC(=O)c1ccc2c(c1)N(CCCN(C)C)c1ccccc1S2 : 0
OC[C@H]1O[C@@H](OCCc2ccc(O)cc2)[C@H](O)[C@@H](O)[C@@H]1O : 0
CC(C)=CCC/C(C)=C/CC/C(C)=C/CO : 1
O=C(O)c1ccccc1Cl : 0
Cc1ccc(C(C)OC(=O)C2(C)CCC(C(=O)O)C2(C)C)cc1 (centres undefined) : 0
CCC(C)(C)CC : 0
CCOC(=O)C(O)c1ccccc1 (centres undefined) : 0
C=C(C)C(=O)OCC : 0
CCCOC(C(=O)OC1CCN(C)CC1)(c1ccccc1)c1ccccc1 : 1
CCN(CC)c1ccc2c(-c3ccccc3C(=O)O)c3ccc(=[N+](CC)CC)cc-3oc2c1 : 1
Cc1cccc(C)c1NC(=O)CN(CC(=O)O)CC(=O)O : 0
COC(C)(C)CCO : 0
O=C(Cl)c1cc(C(=O)Cl)cc(C(=O)Cl)c1 : 0
NS(=O)(=O)c1ccc(N2CCCCS2(=O)=O)cc1 : 0
